# Tested on: E. coli TESEC Mtb DapB
# test_protocol: growth (OD600 after 10 h); higher = more growth (less inhibition)
# reported_conditions: arabinose induction (level): Low; compound 0.1 mM; raw OD600 reference: median of DMSO wells 0.227, cell-free background 0.041
Structures can show the parent of a compound that is named as a salt.
Recorded measurements of growth, one per entry
Field format: numeric only.

CC(=O)[C@@]12O[C@](C)(c3ccccc3)O[C@@H]1C[C@H]1[C@@H]3CCC4=CC(=O)CC[C@]4(C)[C@H]3CC[C@@]12C [Algestone acetophenide] :: 0.171
COc1cc(C(=O)NC2CCCNC2)cc(OC)c1OC (centres undefined) [Troxipide] :: 0.216
CCN(CC)CCOC(=O)C1(C2CCCCC2)CCCCC1 [Dicyclomine hydrochloride] :: 0.183
Cc1cc(C(=O)NNCc2ccccc2)no1 [Isocarboxazid] :: 0.239
NC(=O)N1c2ccccc2C=Cc2ccccc21 [Carbamazepine] :: 0.237

Ask: I would be grateful if you could share the reported growth for CCCCNc1ccc(C(=O)OCCN(C)C)cc1 .
Reply: 0.186

Ask: Returns the measured growth for the input compound. Input: CN1C(C)(C)CCCC1(C)C [Pempidine tartrate]
Reply: 0.239

Ask: Give its growth value. Item: CCOC(=O)Nc1ccc2c(c1)N(C(=O)CCN1CCOCC1)c1ccccc1S2 [Moricizine hydrochloride]
Reply: 0.199

Ask: Field request: growth | item: C[C@H](CCC(=O)O)[C@H]1CC[C@H]2[C@@H]3[C@H](O)C[C@@H]4C[C@H](O)CC[C@]4(C)[C@H]3CC[C@]12C [Chenodiol]
Reply: 0.179

Ask: Form field: reported growth of Oc1ncnc2[nH]ncc12 [Allopurinol]
Reply: 0.234

Ask: Fill in the blank: the reported growth of Cc1onc(-c2c(Cl)cccc2Cl)c1C(=O)N[C@@H]1C(=O)N2[C@@H]1SC(C)(C)[C@@H]2C(=O)O [Dicloxacillin sodium salt hydrate] is ____.
Reply: 0.226

Ask: Record request: growth value, item COc1c2occc2c(OC)c2c(=O)cc(C)oc12 [Khellin]
Reply: 0.253

###

# System: E. coli TESEC Mtb Asd
# test_protocol: growth (OD600 after 10 h); higher = more growth (less inhibition)
# reported_conditions: arabinose induction (level): High; compound 0.1 mM; raw OD600 reference: median of DMSO wells 0.331, cell-free background 0.041
Structures can show the parent of a compound that is named as a salt.
metric: growth
// return just the number, without any unit appended

As a guide, the following entries are already answered.
OCCN1CCN(CCCN2c3ccccc3Sc3ccc(Cl)cc32)CC1 :: 0.0588
Cc1ccccc1OCC(O)CO (configuration not stated) :: 0.416
COc1ccc2cc([C@@H](C)C(=O)O)ccc2c1 [(R) -Naproxen sodium salt] :: 0.484
CO[C@@H]1[C@@H](O[C@@H]2O[C@H](C)[C@@H](O[C@H]3C[C@@](C)(O)[C@@H](OC(=O)CC(C)C)[C@H](C)O3)[C@H](N(C)C)[C@H]2O)[C@@H](CC=O)C[C@@H](C)[C@@H](O)/C=C/C=C/C[C@@H](C)OC(=O)C[C@H]1OC(C)=O :: 0.0609
NS(=O)(=O)c1cc2c(cc1Cl)NC(CC1CCCC1)NS2(=O)=O (configuration not stated) [Cyclopenthiazide] :: 0.377
Nc1ccc(S(=O)(=O)Nc2cnc3ccccc3n2)cc1 [Sulfaquinoxaline sodium salt] :: 0.289

Ask: // query growth value for entry C#C[C@]1(O)CC[C@H]2[C@@H]3CCc4cc(OC)ccc4[C@H]3CC[C@@]21C
Reply: 0.383
